System: HEK293 cells
ASSAY NAME: cell proliferation assay
Type: cell-based
CONDITION LABEL: Homo sapiens, HEK293, 72 h, read-out: IC50 values proliferation HEK293
pIC50: −log10 of the molar value.
MEASURED ENDPOINT: pIC50

May I ask what pIC50 has been recorded for N#Cc1ccc(N2C(=O)C3(CCC3)N(c3ccc(C(=O)NO)c(F)c3)C2=S)cc1C(F)(F)F [Zeta55] ?
< 4.30

---

MEASURED ON: AR (Homo sapiens, UniProt P10275)
Construct: The VCaP cells were transfected with MMTV-LUC for 24 hours; endogenous in cells
Sequence (P10275 whole entry): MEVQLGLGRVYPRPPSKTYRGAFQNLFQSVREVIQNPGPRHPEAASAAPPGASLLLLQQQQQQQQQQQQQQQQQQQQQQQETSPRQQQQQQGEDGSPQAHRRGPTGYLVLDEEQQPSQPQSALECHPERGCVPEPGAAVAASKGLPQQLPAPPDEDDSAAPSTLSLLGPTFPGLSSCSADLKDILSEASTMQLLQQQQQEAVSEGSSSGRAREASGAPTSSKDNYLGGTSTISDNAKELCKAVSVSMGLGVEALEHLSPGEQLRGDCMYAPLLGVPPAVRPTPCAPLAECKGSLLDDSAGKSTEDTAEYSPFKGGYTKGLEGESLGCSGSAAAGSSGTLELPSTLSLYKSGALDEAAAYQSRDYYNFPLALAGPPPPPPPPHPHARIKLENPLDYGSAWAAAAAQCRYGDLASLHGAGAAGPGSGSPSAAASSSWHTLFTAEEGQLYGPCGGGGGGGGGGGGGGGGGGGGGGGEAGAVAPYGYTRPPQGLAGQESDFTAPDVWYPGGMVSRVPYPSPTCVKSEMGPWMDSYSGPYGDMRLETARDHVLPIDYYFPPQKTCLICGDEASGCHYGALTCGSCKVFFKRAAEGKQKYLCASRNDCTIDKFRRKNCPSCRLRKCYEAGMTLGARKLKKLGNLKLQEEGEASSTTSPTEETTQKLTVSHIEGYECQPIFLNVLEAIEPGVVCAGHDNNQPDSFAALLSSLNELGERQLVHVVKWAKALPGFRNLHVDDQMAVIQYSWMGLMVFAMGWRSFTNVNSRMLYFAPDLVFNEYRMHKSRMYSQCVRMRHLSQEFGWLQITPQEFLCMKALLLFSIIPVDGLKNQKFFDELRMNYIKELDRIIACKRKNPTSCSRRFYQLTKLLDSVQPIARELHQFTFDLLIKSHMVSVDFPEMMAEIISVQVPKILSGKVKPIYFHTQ
ASSAY NAME: cell-based
CONDITION LABEL: AR luciferase activity assay, VCaP cells, MMTV-LUC, with 10 nM DHT
MEASURED ENDPOINT: IC50
Param answer (str): number followed by unit.

May I ask what IC50 has been recorded for N#Cc1ccc(N2C(=O)C3(CCC3)N(c3ccc(C(=O)NO)c(F)c3)C2=S)cc1C(F)(F)F ?
630 nM
